Hello, the source for this data is the supplement of paper PMC7877785, in case you need it.

Test: self-splicing fitness, log relative to wild type (ln ratio); higher = more splicing; Tetrahymena group I intron in knt gene, E. coli kanamycin selection, DiMSum; sequences stand for … in CUCUCU…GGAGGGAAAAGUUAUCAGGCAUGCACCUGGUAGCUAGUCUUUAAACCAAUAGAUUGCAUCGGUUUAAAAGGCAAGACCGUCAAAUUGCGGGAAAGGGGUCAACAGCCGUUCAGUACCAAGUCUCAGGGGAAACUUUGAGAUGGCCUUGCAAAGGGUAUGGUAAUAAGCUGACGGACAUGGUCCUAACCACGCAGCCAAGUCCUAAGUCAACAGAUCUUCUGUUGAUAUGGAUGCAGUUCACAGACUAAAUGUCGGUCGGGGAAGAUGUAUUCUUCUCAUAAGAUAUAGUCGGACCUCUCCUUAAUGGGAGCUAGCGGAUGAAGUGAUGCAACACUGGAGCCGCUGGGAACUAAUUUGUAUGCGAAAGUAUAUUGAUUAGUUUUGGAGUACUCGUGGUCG;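 note: selection with 25 µg/mL kanamycin versus none on LB agar overnight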
Details: 30 °C
Outcome: true for self-splicing fitness (ln) of at least -3; false for anything lower.

Worked cases, answers included:
| residues | classification |
| --- | --- |
| CGCCAGCAAUAUUACGUAAG | true |
| CUAUAGCAAUAUUACGAGCG | true |
| CCAAAGCAAUAUUACGUUCC | false |
| CACUAGCAAUAUUACGAGGC | false |

Q. Answer whether self-splicing fitness (ln) of AAUGAGCAAUAUUACGUAUC is greater than or equal to -3.
A. false

* * *

Listed here: items and their measured self-splicing fitness (ln).
Test: self-splicing fitness, log relative to wild type (ln ratio); higher = more splicing; Tetrahymena group I intron in knt gene, E. coli kanamycin selection, DiMSum; sequences stand for … in CUCUCU…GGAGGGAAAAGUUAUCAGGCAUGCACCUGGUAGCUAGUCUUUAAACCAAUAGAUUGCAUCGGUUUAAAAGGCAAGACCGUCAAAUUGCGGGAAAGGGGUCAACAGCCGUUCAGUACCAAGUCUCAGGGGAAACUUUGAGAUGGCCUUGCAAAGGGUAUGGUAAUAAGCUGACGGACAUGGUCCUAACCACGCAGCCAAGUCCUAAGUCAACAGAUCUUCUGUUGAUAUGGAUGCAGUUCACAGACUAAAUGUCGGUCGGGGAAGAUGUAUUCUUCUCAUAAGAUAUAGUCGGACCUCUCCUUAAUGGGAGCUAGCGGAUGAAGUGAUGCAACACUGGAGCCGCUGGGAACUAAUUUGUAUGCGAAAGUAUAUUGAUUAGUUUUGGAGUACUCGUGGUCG
Conditions: 37 °C
Keep the answer to the number alone.

Some sequences with known self-splicing fitness (ln) results, for comparison:
| residues | self-splicing fitness (ln) |
| --- | --- |
| UCCAAGCAAUAUUACGCAUU | -2.35 |
| UAUUAGCAAUAUUACGGUAG | -0.417 |
| GCCGAGCAAUAUUACGACCU | -1.54 |
| AGUCAGCAAUAUUACGCCUA | 0.18 |
| CAUAAGCAAUAUUACGCAUC | -3.39 |

Entry under test: GGGAAGCAAUAUUACGGGGG . Its self-splicing fitness (ln) was -3.18

Entry under test: ACCAAGCAAUAUUACGGUCU . Its self-splicing fitness (ln) was -0.69

Entry under test: GAAUAGCAAUAUUACGGUUG . Its self-splicing fitness (ln) was -0.561

Entry under test: GCCCAGCAAUAUUACGGUAA . Its self-splicing fitness (ln) was 0.44
